testSystem: T1, human GIP receptor (human) (UniProt P48546)
T1 sequence (looked up): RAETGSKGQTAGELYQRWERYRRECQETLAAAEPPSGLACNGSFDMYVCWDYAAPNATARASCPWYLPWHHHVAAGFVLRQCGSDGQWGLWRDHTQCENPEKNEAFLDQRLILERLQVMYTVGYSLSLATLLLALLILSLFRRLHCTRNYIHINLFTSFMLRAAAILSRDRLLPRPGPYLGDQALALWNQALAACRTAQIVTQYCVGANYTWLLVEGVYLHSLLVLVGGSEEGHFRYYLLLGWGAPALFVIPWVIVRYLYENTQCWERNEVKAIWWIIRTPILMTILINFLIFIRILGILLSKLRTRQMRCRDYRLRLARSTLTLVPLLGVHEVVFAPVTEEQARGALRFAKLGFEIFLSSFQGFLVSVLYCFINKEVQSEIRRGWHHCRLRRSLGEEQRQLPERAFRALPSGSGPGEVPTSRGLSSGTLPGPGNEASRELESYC
testMethodNotes: cell-based or functional assay
I'd be grateful if you could share measured cAMP Rel EC50 (in the presence of 1% HSA) for these entries.
Field: numeric (nM). Do not append units.

Name the reported cAMP Rel EC50 (in the presence of 1% HSA) value associated with the binder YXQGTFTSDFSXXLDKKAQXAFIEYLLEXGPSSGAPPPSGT (Aib, Orn, alpha-methyl-Leu, lipidated Lys, C-terminal amide; synthetic construct; SITE 2: note = 2-Aminoisobutyric Acid; SITE 12: note = L-ornithine; SITE 13: note = alpha-methyl-leucine; SITE 17: note = Lysine is chemically modified through conjugation of the epsilon-amino group of the Lysine side chain with (gamma-Glu)-(2-[2-(2-Amino-ethoxy)-ethoxy]-acetyl)) [Example 276]
6.28

Name the reported cAMP Rel EC50 (in the presence of 1% HSA) value associated with the binder YXQGTFTSDFSKXLDKKAQXAFIEYLLAGGPSSGEPPPGGS (synthetic construct; SITE 2: note = 2-Aminoisobutyric Acid; SITE 13: note = alpha-methyl-leucine; SITE 17: note = Lysine is chemically modified through conjugation of the epsilon-amino group of the Lysine side chain with (2-[2-(2-Amino-ethoxy)-ethoxy]-acetyl)-(gamma-Glu)-CO-(CH2) 18-CO2H; SITE 20: n) [Example 9]
41.8

Name the reported cAMP Rel EC50 (in the presence of 1% HSA) value associated with the binder YXQGTXTSDXXIXLDXKAQXEFIEXLIEGGPPSXEPPPXGE (non-natural residues, lysine acylation, C-terminal amide; synthetic construct; SITE 2: note = 2-Aminoisobutyric Acid; SITE 6: note = alpha-methyl-2-fluoro-L-phenylalanine; SITE 10: note = 3-(4-Pyridyl)-L-alanine; SITE 11: note = alpha-methyl-L-serine; SITE 13: note = alpha-methyl-leucine; SITE 16: note = L-ornithine; SITE 17: note = Lysine is chemically mo) [Example 1193]
0.803

Name the reported cAMP Rel EC50 (in the presence of 1% HSA) value associated with the binder YXQGTFTSDFSXXLDKKAQXAFIEYLLEXGPSSGAPPPSGX (acylated Lys γGlu-AEEA-γGlu-C18 diacid; non-natural residues; amide; synthetic construct; SITE 2: note = 2-Aminoisobutyric Acid; SITE 12: note = L-ornithine; SITE 13: note = alpha-methyl-leucine; SITE 17: note = Lysine is chemically modified through conjugation of the epsilon-amino group of the Lysine side chain with (gamma-Glu)-(2-[2-(2-Amino-ethoxy)-ethoxy]-acetyl)) [Example 277]
13.3

Name the reported cAMP Rel EC50 (in the presence of 1% HSA) value associated with the binder YXQGTFTSDFSXXLDKKAQXAFIEWLLEGGXSSGAPPPSGT (non-natural residues, C-terminal amide, acylated Lys with fatty diacid; synthetic construct; SITE 2: note = 2-Aminoisobutyric Acid; SITE 12: note = L-ornithine; SITE 13: note = alpha-methyl-leucine; SITE 17: note = Lysine is chemically modified through conjugation of the epsilon-amino group of the Lysine side chain with (2-[2-(2-Amino-ethoxy)-ethoxy]-acetyl)-(gamma-Glu)) [Example 268]
33.7

Name the reported cAMP Rel EC50 (in the presence of 1% HSA) value associated with the binder YXQGTXTSDXSILLDKKAQXAFIEYLEEGGPSSGEPPPSGTGE (Aib, αMeF(2F), 4Pal; acylated K; C-terminal amide; synthetic construct; SITE 2: note = 2-Aminoisobutyric Acid; SITE 6: note = alpha-methyl-2-fluoro-L-phenylalanine; SITE 10: note = 3-(4-Pyridyl)-L-alanine; SITE 17: note = Lysine is chemically modified through conjugation of the epsilon-amino group of the Lysine side chain with (gamma-Glu)2-CO-(CH2)1) [Example 607]
6.63

Name the reported cAMP Rel EC50 (in the presence of 1% HSA) value associated with the binder YXQGTXTSDXSIXLDKKAQXXFIEYLEEGGPSSGEPPPSGSEE (non-natural residues; C18 diacid-(γGlu)2 on Lys; C-terminal amide; synthetic construct; SITE 2: note = 2-Aminoisobutyric Acid; SITE 6: note = alpha-methyl-2-fluoro-L-phenylalanine; SITE 10: note = 3-(4-Pyridyl)-L-alanine; SITE 13: note = alpha-methyl-leucine; SITE 17: note = Lysine is chemically modified through conjugation of the epsilon-amino group of the Lysine) [Example 635]
2.7

Name the reported cAMP Rel EC50 (in the presence of 1% HSA) value associated with the binder YXQGTXTSDXSIXLDXKAQXEFIEXLIEGGPSSGEPPPSGS (non-natural residues; AEEA-γGlu-C18 diacid acyl; C-terminal amide; synthetic construct; SITE 2: note = 2-Aminoisobutyric Acid; SITE 6: note = alpha-methyl-2-fluoro-L-phenylalanine; SITE 10: note = 3-(4-Pyridyl)-L-alanine; SITE 13: note = alpha-methyl-leucine; SITE 16: note = L-ornithine; SITE 17: note = Lysine is chemically modified through conjugation of the epsil) [Example 644]
0.601

Name the reported cAMP Rel EC50 (in the presence of 1% HSA) value associated with the binder YXQGTXTSDXSIXLDXKAQXEFIEXLLEGGPSSGAPPPSGS (non-natural residues; AEEA-γGlu-C18 diacid on Lys; C-terminal amide; synthetic construct; SITE 2: note = 2-Aminoisobutyric Acid; SITE 6: note = alpha-methyl-2-fluoro-L-phenylalanine; SITE 10: note = 3-(4-Pyridyl)-L-alanine; SITE 13: note = alpha-methyl-leucine; SITE 16: note = L-ornithine; SITE 17: note = Lysine is chemically modified through conjugation of the epsil) [Example 641]
0.832
